# credit: PubChem BioAssay AID1745844

Test system: rodent lifetime carcinogenesis bioassay, tumor incidence TD50
runDescription: carcinogenic potency in animals, long-term in vivo studies, CPDB compilation (AID 1745844)
assayContext: rat; strain Fischer 344; males; in feed; site: liver; lesion: bile duct carcinoma; dosed 101 weeks; study length 101 weeks
endpointLabel: TD50 (mg/kg/day)
Report only the number, with the unit mg/kg/day understood.

Specify the recorded TD50 for `Cc1cc(C)c(N)cc1C` , system: rodent lifetime carcinogenesis bioassay, tumor incidence TD50.
268

###

System: rodent lifetime carcinogenesis bioassay, tumor incidence TD50
runDescription: carcinogenic potency in animals, long-term in vivo studies, CPDB compilation (AID 1745844)
assayContext: mouse; strain B6C3F1; males; by gavage; site: lung; lesion: alveolar/bronchiolar carcinoma; dosed 64 weeks; study length 81 weeks
endpointLabel: TD50

Specify TD50 for `CC(C)CCC[C@@H](C)[C@H]1CC[C@H]2[C@@H]3CC=C4C[C@@H](OC(=O)Cc5ccc(N(CCCl)CCCl)cc5)CC[C@]4(C)[C@H]3CC[C@]12C` and stop.
2.05 mg/kg/day

###

Tested on: rodent lifetime carcinogenesis bioassay, tumor incidence TD50
runDescription: carcinogenic potency in animals, long-term in vivo studies, CPDB compilation (AID 1745844)
assayContext: rat; strain Sprague-Dawley; females; by gavage; site: any site (literature study); lesion: several types; types named in the paper; dosed 80 weeks; study length 95 weeks
Activity calls are given as the source filed them. How the calls were made is not given here.
endpointLabel: TD50

Specify the recorded TD50 for `ClC(Cl)Cl` , system: rodent lifetime carcinogenesis bioassay, tumor incidence TD50.
78.3 mg/kg/day (inactive)

###

System: rodent lifetime carcinogenesis bioassay, tumor incidence TD50
runDescription: carcinogenic potency in animals, long-term in vivo studies, CPDB compilation (AID 1745844)
assayContext: rat; strain Fischer 344; females; in feed; site: urinary bladder; lesion: transitional-cell carcinoma; dosed 100 weeks; study length 100 weeks
endpointLabel: TD50

Specify TD50 for `O=NN(c1ccccc1)c1ccccc1` and stop.
116 mg/kg/day

###

System: rodent lifetime carcinogenesis bioassay, tumor incidence TD50
runDescription: carcinogenic potency in animals, long-term in vivo studies, CPDB compilation (AID 1745844)
assayContext: mouse; strain B6C3F1; females; in drinking water; site: liver; lesion: hepatocellular adenoma + hepatocellular carcinoma; dosed 103 weeks; study length 104 weeks
endpointLabel: TD50

Specify TD50 for `Nc1ccc(Cc2ccc(N)cc2)cc1` and stop.
59.3 mg/kg/day

###

Test system: rodent lifetime carcinogenesis bioassay, tumor incidence TD50
runDescription: carcinogenic potency in animals, long-term in vivo studies, CPDB compilation (AID 1745844)
assayContext: rat; strain Fischer 344; males; in drinking water; site: preputial gland; lesion: adenoma + adenoma, bilateral; dosed 88 weeks; study length 92 weeks
endpointLabel: TD50

Specify TD50 for `COc1cc(-c2ccc(N)c(OC)c2)ccc1N` and stop.
3.28 mg/kg/day

###

System: rodent lifetime carcinogenesis bioassay, tumor incidence TD50
runDescription: carcinogenic potency in animals, long-term in vivo studies, CPDB compilation (AID 1745844)
assayContext: rat; strain Osborne-Mendel; females; in feed; site: pituitary gland; lesion: chromophobe adenoma; dosed 80 weeks; study length 111 weeks
Activity calls are given as the source filed them. No rule for the calls is given here.
endpointLabel: TD50

Specify TD50 for `COP(=O)(OC)OC(=CCl)c1cc(Cl)c(Cl)cc1Cl` and stop.
1580 mg/kg/day (inactive)

###

Test system: rodent lifetime carcinogenesis bioassay, tumor incidence TD50
runDescription: carcinogenic potency in animals, long-term in vivo studies, CPDB compilation (AID 1745844)
assayContext: mouse; strain B6AKF1; males; oral dosing; site: any site (literature study); lesion: several types; types named in the paper; dosed 78 weeks; study length 78 weeks
endpointLabel: TD50
Please answer using a numeric value trailed by its unit.

Specify TD50 for `NNCCO` and stop.
0.404 mg/kg/day
